tested system: T1, human ferroportin (SLC40A1) fused in frame with GFP, stably expressed in HEK293 cells (human, UniProt Q9NP59 1-571)
T1 sequence (looked up): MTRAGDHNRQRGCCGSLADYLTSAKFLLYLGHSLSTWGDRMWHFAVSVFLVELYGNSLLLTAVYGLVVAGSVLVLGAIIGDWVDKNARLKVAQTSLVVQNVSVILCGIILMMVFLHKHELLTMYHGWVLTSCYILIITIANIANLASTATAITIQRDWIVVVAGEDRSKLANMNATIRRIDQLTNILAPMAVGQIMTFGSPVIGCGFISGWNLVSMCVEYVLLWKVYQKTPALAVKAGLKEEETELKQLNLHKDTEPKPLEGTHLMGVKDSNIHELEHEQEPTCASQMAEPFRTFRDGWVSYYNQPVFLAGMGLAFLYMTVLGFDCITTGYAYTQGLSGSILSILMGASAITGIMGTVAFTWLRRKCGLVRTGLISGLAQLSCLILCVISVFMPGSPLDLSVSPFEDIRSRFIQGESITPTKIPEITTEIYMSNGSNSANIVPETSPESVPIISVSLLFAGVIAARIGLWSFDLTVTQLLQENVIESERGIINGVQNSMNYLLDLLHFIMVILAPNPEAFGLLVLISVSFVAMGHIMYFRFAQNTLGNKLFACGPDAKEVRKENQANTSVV
measurement protocol: cell-based or functional assay
Starred links: 1 amine or outer side, 2 acyl side, 3 side chain; linkers in the order of their positions; H or OH if unused. Positions of bridges follow the written chain, without caps; N, C: chain ends. Non-standard residues stand in square brackets, D forms with d. Groups on a side chain read outwards from the residue. *: point of attachment. Gal = N6-(4-(galactopyranosyloxy)butanoyl) on the lysine side chain; Glu(OMe) = COC(=O)CC[C@H](N[*:1])C(=O)[*:2]; C18 diacid = O=C(O)CCCCCCCCCCCCCCCCC(=O)*; Dip = N[C@H](C(=O)O)C(c1ccccc1)c1ccccc1; Palmitoyl = CCCCCCCCCCCCCCCC(=O)*; β3hF = N[C@H](CC(=O)O)Cc1ccccc1; Cha = N[C@@H](CC1CCCCC1)C(=O)O; Isovaleryl = CC(C)CC(=O)*; Dap = NC[C@H](N)C(=O)O; AEEA = NCCOCCOCC(=O)O; Acryloyl = C=CC(=O)*; Ahx = NCCCCCC(=O)O
Please use True for IC50: FPN internalisation under 40 nM and False for everything else, ties included.

Just wondering, is IC50: FPN internalisation of XETHXPCIXXXXC ([Isovaleric Acid]-E-T-H-[Dpa]-P-C-I-[(D)Lys]-[bhPhe]-[N-MeLys(Ahx_Palm)]-[(D)Lys(Carnitine)]-C-NH2) [Seq. No. 541] below 40 nM?
True

Just wondering, is IC50: FPN internalisation of XXTHXPCIXXXC ([Isovaleric Acid]-[Glu(OMe)]-T-H-[Dpa]-P-C-I-[Lys(1PEG2_1PEG2_Dap_C18_Diacid)]-[bhPhe]-[(D)Lys(Ac)]-C-NH2) [Seq. No. 521] below 40 nM?
True

Just wondering, is IC50: FPN internalisation of Isovaleryl-[Glu(OMe)]TH[Dip]PC[Cha]K([AEEA-AEEA-Dap-C18 diacid])[β3hF][dK]C-NH2 (disulfide 6-11 (inferred)) [Seq. No. 511] below 40 nM?
True

Just wondering, is IC50: FPN internalisation of XXTHXPCIXXXC ([Isovaleric Acid]-[Glu(OMe)]-T-H-[Dpa]-P-C-I-[Lys(PEG12_PEG12_Dap_C18_Diacid)]-[bhPhe]-[(D)Lys]-C-NH2) [Seq. No. 519] below 40 nM?
True

Just wondering, is IC50: FPN internalisation of XETYXPCIXXXC ([Isovaleric Acid]-E-T-Y-[Dpa]-P-C-I-[Lys(1PEG2_1PEG2_Dap_C18_Diacid)]-[bhPhe]-[(D)Lys]-C-NH2) [Seq. No. 477] below 40 nM?
False

Just wondering, is IC50: FPN internalisation of Isovaleryl-ETH[Dip]PC[dK](Acryloyl)[dK][β3hF]K([Ahx-Palmitoyl])[dK]C-NH2 (not fully specified (bridges); cysteine pairing not given here) [Seq. No. 555] below 40 nM?
True

Just wondering, is IC50: FPN internalisation of XEXHXPCIXXXXC (not fully specified; [Isovaleric Acid]-E-[Dab]-H-[Dpa]-P-C-I-[(D)Lys]-[bhPhe]-[Lys(Ahx_Palm)]-[(D)Lys]-C-NH2) [Seq. No. 548] below 40 nM?
False

Just wondering, is IC50: FPN internalisation of XXTHXPCIXXXC ([Isovaleric Acid]-[(D)Arg]-T-H-[Dpa]-P-C-I-[Lys(1PEG2_1PEG2_Dap_C18_Diacid)]-[bhPhe]-[(D)Lys]-C-NH2) [Seq. No. 537] below 40 nM?
True

Just wondering, is IC50: FPN internalisation of XEXHXPCIXXXC (not fully specified; [Isovaleric Acid]-E-[N-(hydroxyethyl)Gly]-H-[Dpa]-P-C-I-[Lys(1PEG2_1PEG2_Ahx_C18_Diacid)]-[bhPhe]-[(D)Lys]-C-NH2) [Seq. No. 565] below 40 nM?
True

Just wondering, is IC50: FPN internalisation of XXTHXPCIXXXC ([Isovaleric Acid]-[IsoGlu]-T-H-[Dpa]-P-C-I-[Lys(1PEG2_1PEG2_Ahx_C18_Diacid)]-[bhPhe]-[(D)Lys(PEG11_OMe)]-C-NH2) [Seq. No. 533] below 40 nM?
False

Just wondering, is IC50: FPN internalisation of XXTHXPCIXXXC ([Isovaleric Acid]-[Glu(OMe)]-T-H-[Dpa]-P-C-I-[Lys(1PEG2_1PEG2_Dap_C18_Diacid)]-[Igl]-[(D)Lys]-C-NH2) [Seq. No. 522] below 40 nM?
True

Just wondering, is IC50: FPN internalisation of Isovaleryl-ETH[Dip]PC[dK](Gal)K([AEEA-AEEA-Ahx-C18 diacid])[β3hF][dK]C-NH2 (not fully specified (bridges); cysteine pairing not given here) [Seq. No. 560] below 40 nM?
False

Just wondering, is IC50: FPN internalisation of Isovaleryl-ETHFPCIK(Ac)F[dK]C-NH2 (disulfide 6-11 (inferred)) [Seq. No. 478] below 40 nM?
False

Just wondering, is IC50: FPN internalisation of Isovaleryl-[Glu(OMe)]TH[Dip]PCI[dK][β3hF]K([Ahx-Palmitoyl])[dR]C[dR]-NH2 (disulfide 6-12 (inferred)) [Seq. No. 500] below 40 nM?
False

Just wondering, is IC50: FPN internalisation of XXTHXPCIXXXXC ([Isovaleric Acid]-[Glu(OMe)]-T-H-[Dpa]-P-C-I-[(D)Lys]-[bhPhe]-[Lys(DMG_N_2ae_Palm)]-[(D)Lys]-C-NH2) [Seq. No. 526] below 40 nM?
True

Just wondering, is IC50: FPN internalisation of Isovaleryl-ETH[Dip]PCCK([AEEA-AEEA-Ahx-C18 diacid])[β3hF][dK]-NH2 (not fully specified (bridges); cysteine pairing not given here) [Seq. No. 577] below 40 nM?
True

Just wondering, is IC50: FPN internalisation of XXTHXPCIXXXC ([Isovaleric Acid]-[(D)Glu]-T-H-[Dpa]-P-C-I-[Lys(1PEG2_1PEG2_Ahx_C18_Diacid)]-[bhPhe]-[(D)Lys(PEG11_OMe)]-C-NH2) [Seq. No. 540] below 40 nM?
False

Just wondering, is IC50: FPN internalisation of Isovaleryl-ETH[Dip]PC[dK][β3hF]K([Ahx-Palmitoyl])[dK]C-NH2 (not fully specified (bridges); cysteine pairing not given here) [Seq. No. 571] below 40 nM?
True

Just wondering, is IC50: FPN internalisation of XETHXPCIXXXXC ([Isovaleric Acid]-E-T-H-[Dpa]-P-C-I-[Lys(Ac)]-[bhPhe]-[Lys(Ahx_Palm)]-[(D)Arg]-C-NH2) [Seq. No. 476] below 40 nM?
False

Just wondering, is IC50: FPN internalisation of XXTYXPCIXXXC ([Isovaleric Acid]-[Glu(OMe)]-T-Y-[Dpa]-P-C-I-[Lys(1PEG2_1PEG2_Ahx_C18_Diacid)]-[bhPhe]-[(D)Lys]-C-NH2) [Seq. No. 497] below 40 nM?
True

Just wondering, is IC50: FPN internalisation of XETXXPCIXXXXC (not fully specified; [Isovaleric Acid]-E-T-[Lys(Acrylamide)]-[Dpa]-P-C-I-[(D)Lys]-[bhPhe]-[Lys(Ahx_Palm)]-[(D)Lys]-C-NH2) [Seq. No. 552] below 40 nM?
False

Just wondering, is IC50: FPN internalisation of XETHXPCIXXXC (not fully specified; [Isovaleric Acid]-E-T-H-[Dpa]-P-C-I-[(D)Lys]-[bhPhe]-[Lys(1PEG2_1PEG2_IsoGlu_C18_Diacid)]-C-OH) [Seq. No. 563] below 40 nM?
False
